Tested on: T-47D breast
EXPERIMENTAL PROTOCOL: NCI tumour cell line growth inhibition, 48 h
PROPERTY MEASURED: TGI

CCOC(=O)C1=C(C)NC(C)=C(C(=O)OCC)C1c1ccc(Cl)cc1: 35.2 µM

Indicate its recorded TGI; the molecule in question is COC(=O)C(=O)C(C(=O)C(=O)Nc1ccc([N+](=O)[O-])cc1[N+](=O)[O-])c1nc2ccc(Cl)cc2[nH]c1=O (stereo not drawn)
> 100 µM

Note TGI for the molecule shown: "O=C1OC(c2ccccc2)=N/C1=C\c1ccc(Br)cc1"
> 100 µM

For the molecule "O=C1CCCC/C1=C(\Br)I" , give its measured TGI value.
15.2 µM

Give me measured TGI, please, for this molecule: "C=C(C)c1nc(C#N)c(N)o1"
> 100 µM

Origin of values: PubChem BioAssay (NCI)
